- system: CYP3A4 (Homo sapiens, UniProt P08684)
- Sequence (P08684 whole entry): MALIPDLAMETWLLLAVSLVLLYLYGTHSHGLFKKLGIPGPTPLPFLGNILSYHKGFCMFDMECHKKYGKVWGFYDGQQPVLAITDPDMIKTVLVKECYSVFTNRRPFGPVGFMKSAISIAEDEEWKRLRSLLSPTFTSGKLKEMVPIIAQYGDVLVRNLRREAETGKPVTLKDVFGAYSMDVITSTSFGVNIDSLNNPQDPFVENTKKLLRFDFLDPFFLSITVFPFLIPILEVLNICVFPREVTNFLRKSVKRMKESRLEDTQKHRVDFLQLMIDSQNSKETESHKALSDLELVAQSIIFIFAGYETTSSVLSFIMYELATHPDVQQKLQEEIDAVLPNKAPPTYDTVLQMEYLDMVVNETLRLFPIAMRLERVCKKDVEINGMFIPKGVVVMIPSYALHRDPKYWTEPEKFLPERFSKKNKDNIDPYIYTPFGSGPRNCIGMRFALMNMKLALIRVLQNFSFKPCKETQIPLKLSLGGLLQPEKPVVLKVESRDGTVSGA
- method: Clinical study: ipatasertib 300 mg QD with palbociclib (NCT04060862)
- measurement-setup: in vivo
observable: Tmax (h)
Provide only the numeric value, understood in h.

State the recorded Tmax for this entry: CC(C)NC[C@@H](C(=O)N1CCN(c2ncnc3c2[C@H](C)C[C@H]3O)CC1)c1ccc(Cl)cc1 [Ipatasertib]
1.5

----------
- method: Physicochemical parameters (LogP, pKa, compound type; in-house data)
- measurement-setup: read-out: pKa2
- Source text: The physiochemical and ADME parameters used for the development of the initial PBPK model are summarized Table S1. […] The IV clearance determined in the clinical absolute bioavailability study was used (ClinicalTrials.gov Identifier: NCT02390492). […] The CYP3A4 inhibition parameters for competitive inhibition and TDI determined using in vitro assays (Data on file) were incorporated into the model.
observable: pKa
Reply with just the number.

State the recorded pKa for this entry: CC(C)NC[C@@H](C(=O)N1CCN(c2ncnc3c2[C@H](C)C[C@H]3O)CC1)c1ccc(Cl)cc1
4.9
